For each entry below, report its MFI value.
Target: T1, human OX40 on cells (CHO-hOX40, 293HEK-hOX40, Jurkat-hOX40, activated primary CD4+ T cells) (human, UniProt P43489 29-277)
T1 construct: whole, on cells; The cell type is told in each assay; also called CHO-OX40
T1 sequence (looked up): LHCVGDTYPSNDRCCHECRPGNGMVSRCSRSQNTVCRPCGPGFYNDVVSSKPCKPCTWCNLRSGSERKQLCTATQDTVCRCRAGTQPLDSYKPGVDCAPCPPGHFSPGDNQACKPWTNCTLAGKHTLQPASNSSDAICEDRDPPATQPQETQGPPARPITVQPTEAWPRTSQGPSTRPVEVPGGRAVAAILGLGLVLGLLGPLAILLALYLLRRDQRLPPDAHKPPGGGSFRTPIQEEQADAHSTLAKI
Assay: flow cytometry, 293HEK-hOX40, 200 nM

# input Return the recorded MFI value; entry: ADI-20066, IgG1 format (antibody, V domains shown, Made in yeast) VH: QLQLQESGPGLVKPSETLSLTCTVSGGSISSSSYYWGWIRQPPGKGLEWIGSIYYSGSTYYNPSLKSRVTISVDTSKNQFSLKLSSVTAADTAVYYCARDPGYSASPNWFDPWGQGTLVTVSS VL: EIVLTQSPGTLSLSPGERATLSCRASQSVSSSFLAWYQQKPGQAPRLLIYGASSRATGIPDRFSGSGSGTDFTLTISRLEPEDFAVYYCQQYDVFPITFGGGTKVEIKR
# output 2.55e+06 MFI

# input Item ADI-20048, IgG1 format (antibody, V domains shown, Made in yeast) VH: QVQLQESGPGLVKPSETLSLTCTVSGGSISSYYWSWIRQPPGKGLEWIGYIYSSGSTNYNPSLKSRVTISVDTSKNQFSLKLSSVTAADTAVYYCARDAPGGSSYQDYYMDVWGKGTTVTVSS VL: EIVLTQSPATLSLSPGERATLSCRASQSVSSYLAWFQQKPGQAPRLLIYDASNRATGIPARFSGSGSGTDFTLTISSLEPEDFAVYYCQQAFSMPPTFGGGTKVEIKR : provide MFI
# output 1.7e+06 MFI

# input Fill in MFI for record IgG1 control (antibody, V domains shown, Negative control; The printed entries seem to begin with a leader peptide) VH: EVRLLESGGGLVQPGGSLRLSCAASGFTFSNYAMGWVRQAPGKGLEWVSAISGSGGSTYYADSVKGRFTTSRDDSKNALYLQMNSLRAEDTAVYYCARGGPGWYAADVWGQGTTVTVSS VL: DIQMTQSPSSLSASVGDRVTITCRASQSISSYLNWYQQKPGKAPKLLIYAASSLQSGVPSRFSGSGSGTDFTLTISSLQPEDFATYYCQQADLPAFAFGGGTKVEIKR
# output 11100 MFI

# input Specify measured MFI for ADI-20113, IgG1 format (antibody, V domains shown, Made in yeast) VH: QVQLVESGGGVVQPGRSLRLSCAASGFTFSSYGMHWVRQAPGKGLEWVAVISYDGSNKYYADSVKGRFTISRDNSKNTLYLQMNSLRAEDTAVYYCARGRPWYSETGTSAFDIWGQGTMVTVSS VL: EIVMTQSPATLSVSPGERATLSCRASQSVSSNLAWYQQKPGQAPRLLIYSASTRATGIPARFSGSGSGTEFTLTISSLQSEDFAVYYCQQHNVYPPYTFGGGTKVEIKR .
# output 2.41e+06 MFI
